Test system: HeLa Kyoto;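 further: HeLa Kyoto cells arrested at G1/S by double thymidine block, proteins quantified by TMT10plex mass spectrometry in mild NP-40 versus SDS extracts, three biological replicates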
protocol: solubility in G1/S (NP-40 vs SDS abundance) (log2 ratio); higher = more soluble
test.settings: cell cycle stage: G1/S
Rule: solubility in G1/S (log2) under 0.4 gives rule not met, otherwise rule met.

Can MAASRWARKAVVLLCASDLLLLLLLLPPPGSCAAEGSPGTPDESTPPPRKKKKDIRDYNDADMARLLEQWEKDDDIEEGDLPEHKRPSAPVDFSKIDPSKPESILKMTKKGKTLMMFVTVSGSPTEKETEEITSLWQGSLFNANYDVQRFIVGSDRAIFMLRDGSYAWEIKDFLVGQDRCADVTLEGQVYPGKGGGSKEKNKTKQDKGKKKKEGDLKSRSSKEENRAGNKREDL [MESDC2] be said to have solubility in G1/S (log2) at or above 0.4?
rule not met

Can MAHQTGIHATEELKEFFAKARAGSVRLIKVVIEDEQLVLGASQEPVGRWDQDYDRAVLPLLDAQQPCYLLYRLDSQNAQGFEWLFLAWSPDNSPVRLKMLYAATRATVKKEFGGGHIKDELFGTVKDDLSFAGYQKHLSSCAAPAPLTSAERELQQIRINEVKTEISVESKHQTLQGLAFPLQPEAQRALQQLKQKMVNYIQMKLDLERETIELVHTEPTDVAQLPSRVPRDAARYHFFLYKHTHEGDPLESVVFIYSMPGYKCSIKERMLYSSCKSRLLDSVEQDFHLEIAKKIEIGDGAELTAEFLYDEVHPKQHAFKQAFAKPKGPGGKRGHKRLIRGPGENGDDS [TWF2] be said to have solubility in G1/S (log2) at or above 0.4?
rule not met

Can MASPGCLWLLAVALLPWTCASRALQHLDPPAPLPLVIWHGMGDSCCNPLSMGAIKKMVEKKIPGIYVLSLEIGKTLMEDVENSFFLNVNSQVTTVCQALAKDPKLQQGYNAMGFSQGGQFLRAVAQRCPSPPMINLISVGGQHQGVFGLPRCPGESSHICDFIRKTLNAGAYSKVVQERLVQAEYWHDPIKEDVYRNHSIFLADINQERGINESYKKNLMALKKFVMVKFLNDSIVDPVDSEWFGFYRSGQAKETIPLQETSLYTQDRLGLKEMDNAGQLVFLATEGDHLQLSEEWFYAHIIPFLG [PPT1] be said to have solubility in G1/S (log2) at or above 0.4?
rule met

Can MTTSQKHRDFVAEPMGEKPVGSLAGIGEVLGKKLEERGFDKAYVVLGQFLVLKKDEDLFREWLKDTCGANAKQSRDCFGCLREWCDAFL [BANF1] be said to have solubility in G1/S (log2) at or above 0.4?
rule not met
